Every entry's value here was drawn from patent US20150232562A1.

biological target: T1, recombinant human ErbB2/Fc chimera (human, UniProt P04626 23-652); assay: ELISA, coated ErbB2/Fc
T1 construct: bought from R&D Systems; also called rhErbB2-Fc; rhErb2-Fc; Fc part of the bought chimera not given; not described
Measurement type: binding result

Query: What measured binding result goes with 12D44/1-122 (VHH, C-term myc-His6 tag) VHH: KVQLVESGGGLVQAGGSLRLSCAASGRTFSSYAMAWFRQAPGTEREFIAGIRWSDGSTYYADSVKGRFTISRANAKNTVYLQMNGLKPEDTAVYYCAADFYVSTLAHEYDYWGQGTQVTVSS ?
Reply: binds

Query: # input binder: 13B12 (VHH, C-term myc-His6 tag) VHH: EVQLVESGGGLVQAGGSLRLSCAASGIAFRIRTMAWYRQAPGKQRDWVATIGSDGTTIYADSVKGRFTLSRHNAENTVYLQMNSLKPEDTAVYYCRDVNRDYWGQGTQVTVSS ; wanted: its binding result
Reply: binds
